- experimental.system: AHR (UniProt P35869)
- Construct: IC50
- experiment.notes: DRE-Luciferase Reporter Assay (Alternate Method) (Example 1B)
- Assay type: cell-based, murine or human
- test.parameters: cell line and AHR activating ligand not specified
quantity: IC50

compound	experimental.system	IC50
Cc1cnn2c(NC[C@H](C)c3c[nH]c4ccccc34)cc(-c3cncc(F)c3)nc12 [I-160b]	AHR (UniProt P35869)	> 1500 nM
Cc1cnn2c(N[C@@H](CO)Cc3c[nH]c4ccccc34)cc(-c3cncc(F)c3)nc12 [I-185]	AHR (UniProt P35869)	> 1500 nM
O=Cc1cnn2c(NC3CCc4[nH]c5ccccc5c4C3)nc(-c3cncc(F)c3)nc12 (stereo not shown) [I-275]	AHR (UniProt P35869)	< 500 nM
CNCc1cnn2c(NC3CCc4[nH]c5ccccc5c4C3)nc(-c3cncc(F)c3)nc12 (stereo not shown) [I-277]	AHR (UniProt P35869)	< 500 nM

Quick note, IC50 for CC(C)n1cnc2c(NCCc3c[nH]c4cnccc34)nc(-c3cncc(F)c3)nc21 [I-9] landed at 500 to 1000 nM
